src = paper PMC6358775

# Tested on: PE-induced contraction of endothelium-denuded pulmonary arterial rings
# run-description: Inhibition of phenylephrine (PE)-induced contraction in endothelium-denuded arterial rings
# Set-up: species or system rat
# conditions: remaining contraction, 10 µM compound, 15 min pre-incubation, E− rings
Quick list: maximal contraction induced by PE attenuated to per entry.
measure-name: maximal contraction induced by PE attenuated to (%)

compound-structure-string	unit-string	endpoint-result
O=C(Nc1ccccc1)Nc1ccc(Nc2nc(NCc3cccs3)c3ccccc3n2)cc1	%	57.57
c1ccc(CNc2nc(Nc3ccc(N4CCOCC4)cc3)nc3ccccc23)cc1	%	43.38
NS(=O)(=O)c1cccc(Nc2nc(NCc3ccco3)c3ccccc3n2)c1	%	54.07
c1csc(CNc2nc(Nc3ccc(N4CCOCC4)cc3)nc3ccccc23)c1	%	56.38
